Activity values, listed per item
biological target: D(2) dopamine receptor (Rattus norvegicus); test: Effect on extracellular DA levels in the striatal region of rat brain.; type: functional, tissue-based
EXPERIMENTAL_ENDPOINT: Activity

INSERT INTO results (molecule, recorded_number) VALUES
  ('CC(C)N1CCC[C@@H](c2cccc(O)c2)C1', 56),
  ('CCCN1CCC[C@@H](c2cccc(Br)c2)C1', 372),
  ('C=CCN1CCC[C@@H](c2ccccc2)C1', 364),
  ('CCCN1CCC[C@@H](c2cccc(C#N)c2)C1', 411),
  ('CCN1CCC[C@@H](c2cccc(OS(=O)(=O)C(F)(F)F)c2)C1', 143),
  ('CCCN1CCC[C@@H](c2ccccc2)C1', 543),
  ('CCN1CCC[C@@H](c2cccc(C#N)c2)C1', 223),
  ('CCCN1CCC[C@@H](c2cccc(S(C)(=O)=O)c2)C1', 293),
  ('CCCN1CCC[C@@H](c2cccc(O)c2)C1', 400),
  ('C#Cc1cccc([C@@H]2CCCN(CCC)C2)c1', 270),
  ('CCCN1CCC[C@@H](c2cccc(OS(C)(=O)=O)c2)C1', 239),
  ('CCC(C)N1CCC[C@@H](c2cccc(C#N)c2)C1 (stereo partly specified)', 282),
  ('CCCN1CCC[C@@H](c2cccc(C(C)=O)c2)C1', 196),
  ('C=CCN1CCC[C@@H](c2cccc(C#N)c2)C1', 593),
  ('CCCN1CCC[C@@H](c2cccc(CO)c2)C1', 191),
  ('CCCN1CCC[C@@H](c2cccc(-c3ccsc3)c2)C1', 106);
